experimental-target: Voltage-gated potassium channel subunit beta-2 (Rattus norvegicus)
protocol-notes: inhibitors of rat Kvbeta2 reductase activity – biochemical, NADPH fluorescence, primary screen (AID 622);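 also: slope of raw intensity against log time taken from 70 to 1610 s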
setup-conditions: recombinant KvBeta, 4-cyanobenzaldehyde reduction, at 10 µM, stronger effect = higher value
Would you mind telling me the reported fluorescence slope of each entry?
Lab note: jot the number down without any unit.

Measured fluorescence slope of `COC(=O)c1ccccc1NC(=O)c1noc2c1CCC2` : -0.597

Measured fluorescence slope of CCC(c1nnc(SCC(=O)Nc2ccc(C(=O)Nc3ccccc3OC)cc2)o1)N(C)C (stereo unspecified) : -0.442

Measured fluorescence slope of `O=C(NCc1cccnc1)c1cn(CCc2ccccc2)nn1` : -0.31

Measured fluorescence slope of `OCc1nc(CO)n(Cc2ccccc2)n1` : -0.501

Measured fluorescence slope of `CC(=O)c1cccc(NC(=O)NCc2ccccn2)c1` : -0.424

Measured fluorescence slope of `Cn1nc(-c2ccc(N3CCCCC3)c(NC(=O)c3ccco3)c2)c2ccccc2c1=O` : -0.5

Measured fluorescence slope of CC(=O)NC(C)C(=O)OCc1ccc(Cl)cc1Cl (stereo unspecified) : -0.467

Measured fluorescence slope of `Cc1cc(S(=O)(=O)N2CCN(c3ccccc3C)CC2)ccc1F` : -0.462

Measured fluorescence slope of `CCn1cc(C(=O)OCc2ccc(F)cc2)c(=O)c2ccc(C)nc21` : -0.428

Measured fluorescence slope of `CCCn1c(SCC(=O)N2CCc3ccccc3C2)nc2c1c(=O)n(C)c(=O)n2C` : -0.303

Measured fluorescence slope of CCC(C)NC(=O)c1cc(-c2ccc(OC)cc2)on1 (stereo unspecified) : -0.286

====

protocol-notes: endothelial E-selectin expression blockers – imaging, HUVEC, immunofluorescence, MLSMR starter and 10KST1 sets, primary screen (AID 487);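 also: 100% = median nuclei count of all wells on the same plate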
setup-conditions: HUVEC TNFalpha-induced E-selectin immunofluorescence imaging, at 2 µM; measured here: cell number, toxicity
Would you mind telling me the reported nuclei count of each entry?
Output spec: scalar in %, unitless text.

Measured nuclei count of `Cc1cc(C)c2nc(C(F)(F)F)nc(NCCCN3CCCC3=O)c2c1` : 97.5

Measured nuclei count of CCn1cc(SCC(=O)NCC2CCCO2)c2ccccc21 (stereo unspecified) : 102

Measured nuclei count of `N#CC1=C(N)SC(N)=C(C#N)C1CCc1ccccc1` : 104

Measured nuclei count of `CCOc1nc(NCCC2=CCCCC2)nc(N2CCOCC2)n1` : 96.5

Measured nuclei count of Cc1ccc(S(=O)(=O)N2CCCN(S(=O)(=O)C3CCS(=O)(=O)C3)CC2)cc1 (stereo unspecified) : 129

Measured nuclei count of O=C(Nc1nc(-c2ccccc2)cs1)C1CCCO1 (stereo unspecified) : 156

====

protocol-notes: TLR3 IRF3 reporter activation blockers – cell-based, poly I:C stimulus, luciferase, 10K MLSCN set, primary screen (AID 602277)
setup-conditions: HEK293-TLR3 RL24 IRF3 luciferase reporter, at 10 µM, stronger effect = higher value
Please enter T where inhibition is greater than or equal to 20%, and F where it is lower.

Q) Is it the case that CCOCC(O)CS(=O)Cc1ccccc1 (configuration not stated) has inhibition reaching or exceeding 20%?
A) F

Q) Is it the case that `C1=C(CCNc2ncnc3c2cnn3-c2ccccc2)CCCC1` has inhibition reaching or exceeding 20%?
A) F

Q) Is it the case that `O=C(c1cnc2sccn2c1=O)N1CCc2ccccc2C1` has inhibition reaching or exceeding 20%?
A) T

Q) Is it the case that CC(=O)NCCn1c(SCC(=O)NCC2CCCO2)nc2ccccc2c1=O (configuration not stated) has inhibition reaching or exceeding 20%?
A) F

Q) Is it the case that O=C1NC(=O)C(CC(=O)N(c2ccccc2)C2(C(=O)NC3CCCC3)CCCCC2)N1 (configuration not stated) has inhibition reaching or exceeding 20%?
A) F

Q) Is it the case that `CCOC(=O)c1c(C)oc2ccc(O)c(CN3CCCCC3)c12` has inhibition reaching or exceeding 20%?
A) T

Q) Is it the case that `CN1CCN(c2nc3c(c(=O)[nH]c(=O)n3C)n2CCSc2nc3ccccc3s2)CC1` has inhibition reaching or exceeding 20%?
A) T

Q) Is it the case that COc1cc(C(Nc2ccc3c(c2)OCO3)C(=O)NC2CCCCC2)cc(OC)c1OC (configuration not stated) has inhibition reaching or exceeding 20%?
A) T

Q) Is it the case that `O=C(c1ccc(Cl)cc1)N1CCCOC1` has inhibition reaching or exceeding 20%?
A) F

Q) Is it the case that `CCCCc1cc2c(c(NC(C)=O)n1)c(=O)oc1ccccc12` has inhibition reaching or exceeding 20%?
A) T

Q) Is it the case that `Cc1onc(-c2ccccc2)c1C(N)=O` has inhibition reaching or exceeding 20%?
A) F
